Target under test: T1, PKC-ζ (purified isoform) (Homo sapiens (Human), UniProt Q05513 1-592)
T1 construct: also called PKC-zeta; PKCzeta
T1 sequence: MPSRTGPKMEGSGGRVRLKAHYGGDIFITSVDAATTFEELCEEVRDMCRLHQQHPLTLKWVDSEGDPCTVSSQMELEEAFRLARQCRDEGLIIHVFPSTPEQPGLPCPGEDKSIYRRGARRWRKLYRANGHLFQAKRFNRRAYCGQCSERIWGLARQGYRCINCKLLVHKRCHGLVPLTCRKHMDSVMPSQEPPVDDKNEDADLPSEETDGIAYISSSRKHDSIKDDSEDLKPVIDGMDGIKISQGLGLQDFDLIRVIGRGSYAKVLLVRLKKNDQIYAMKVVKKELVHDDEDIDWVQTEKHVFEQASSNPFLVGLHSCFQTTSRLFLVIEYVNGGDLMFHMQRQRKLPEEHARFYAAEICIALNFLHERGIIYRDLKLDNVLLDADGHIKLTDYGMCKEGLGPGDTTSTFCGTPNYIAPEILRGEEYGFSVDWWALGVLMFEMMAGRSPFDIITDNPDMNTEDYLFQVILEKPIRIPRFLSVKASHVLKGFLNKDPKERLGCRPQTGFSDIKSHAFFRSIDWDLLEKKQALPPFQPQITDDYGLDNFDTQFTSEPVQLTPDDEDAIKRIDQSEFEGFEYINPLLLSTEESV
Assay text: competitive ELISA on purified PKC-ζ vs anti-PKC-ζ Ab; PRE 50 µM
Quantity kind: binding capacity (%)
Please state the figure in %; there is no need to write the unit.

Reference set (3 entries):
{"Binder": "Ac-RDAQNLIGISI-NH2 (Synthetic peptide; also called peptide PRE 11) [PRE 11]", "Units symbol": "%", "binding capacity (%)": 0}
{"Binder": "ILEDKGGDAQNLIGISI (Synthetic peptide; termini given free; also called peptide PRE 8) [PRE 8]", "Units symbol": "%", "binding capacity (%)": 0}
{"Binder": "Ac-ISIGILQNADK-NH2 (Synthetic peptide (retro form of PRE 4); also called peptide PRE 7) [PRE 7]", "Units symbol": "%", "binding capacity (%)": 1.83}

Alright, here's another binder for you.
IN: Data request, read-out binding capacity (%), for Ac-KDAQNLIGISI-NH2 (Synthetic peptide; also called peptide PRE 4) [PRE 4]
OUT: 0
